# system under test: rat GPR14 (U-II receptor) (Rattus norvegicus, UniProt P49684)
# Construct: expressed in transfected cells
# Sequence (P49684 whole entry): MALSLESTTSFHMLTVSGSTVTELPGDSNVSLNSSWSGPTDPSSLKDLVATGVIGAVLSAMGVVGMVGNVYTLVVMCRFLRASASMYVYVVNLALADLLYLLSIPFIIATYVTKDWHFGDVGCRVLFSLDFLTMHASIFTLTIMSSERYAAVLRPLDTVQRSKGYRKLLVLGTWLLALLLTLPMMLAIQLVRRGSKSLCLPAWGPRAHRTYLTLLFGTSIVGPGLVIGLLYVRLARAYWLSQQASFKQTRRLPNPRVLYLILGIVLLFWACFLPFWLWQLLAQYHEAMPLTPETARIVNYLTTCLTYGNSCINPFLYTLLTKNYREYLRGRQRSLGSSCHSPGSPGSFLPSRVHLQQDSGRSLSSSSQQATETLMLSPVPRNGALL
# experiment: Rat UII Calcium Mobilization FLIPR Assay
# Format: cell-based
# setup conditions: average value for the compound tested; read-out: Rat UII FLIPR Average IC50
pIC50: −log10 of the molar value.
measured property: pIC50

Answered cases to consult:
compound	system under test	measured property	readout number
COc1ccc([C@@H](CCCNS(=O)(=O)c2c(C)noc2C)N2C(=O)c3cccc(N4CCN([C@H](C)c5ccccc5)CC4)c3C2=O)cc1OC [Cpd 139]	rat GPR14 (U-II receptor) (Rattus norvegicus, UniProt P49684)	pIC50	7.54
COc1ccc([C@@H](CCCNS(=O)(=O)c2cn(C)nc2C)N2C(=O)c3cccc(N4CCN([C@H](C)c5ccccc5)CC4)c3C2=O)cc1OC [Cpd 128]	rat GPR14 (U-II receptor) (Rattus norvegicus, UniProt P49684)	pIC50	8.05
COc1ccc(C(CCCNS(=O)(=O)Cc2ccccc2)N2C(=O)c3cccc(N4CCN([C@H](C)c5ccccc5)CC4)c3C2=O)cc1OC (some centres unmarked) [Cpd 117]	rat GPR14 (U-II receptor) (Rattus norvegicus, UniProt P49684)	pIC50	7.24

a: COc1ccc(C(CCCNS(=O)(=O)c2cc(C)oc2C)N2C(=O)c3cccc(N4CCN([C@H](C)c5ccccc5)CC4)c3C2=O)cc1OC (some centres unmarked) [Cpd 99]
b: COc1ccc(C(CCCNS(=O)(=O)c2cccnc2)N2C(=O)c3cccc(N4CCN([C@H](C)c5ccccc5)CC4)c3C2=O)cc1OC (some centres unmarked) [Cpd 106]
c: CCN1CCN(c2cccc3c2C(=O)N([C@H](CCCOCc2cccs2)c2ccc(OC)c(OC)c2)C3=O)CC1 [Cpd 214]
d: COc1ccc([C@@H](CCCNC(=O)c2cc(C)on2)N2C(=O)c3cccc(N4CCN([C@H](C)c5ccccc5)CC4)c3C2=O)cc1OC [Cpd 159]
Q. Rank the items in ascending order with respect to pIC50. Rank them, then answer with their labels in that order.
A. c, a, d, b

I: COc1ccc([C@@H](CCCNC(=O)c2conc2C)N2C(=O)c3cccc(N4CCN([C@H](C)c5ccccc5)CC4)c3C2=O)cc1OC [Cpd 158]
II: COc1ccc(C(CCCNS(=O)(=O)c2ccccn2)N2C(=O)c3cccc(N4CCN([C@H](C)c5ccccc5)CC4)c3C2=O)cc1OC (some centres unmarked) [Cpd 107]
Q. // which entry has the larger pIC50 value, I or II ? Your answer should be the label of the entry you select.
A. I

P: CCCC(=O)NCCC[C@H](c1ccc(OC)c(OC)c1)N1C(=O)c2cccc(N3CCN([C@H](C)c4ccccc4)CC3)c2C1=O [Cpd 176]
Q: COc1ccc([C@@H](CCCNS(=O)(=O)c2cccs2)N2C(=O)c3cccc(OCCCN(C)C)c3C2=O)cc1OC [Cpd 224]
R: COc1ccc(CN2C(=O)c3cccc(N4CCN(Cc5ccccc5O)CC4)c3C2=O)cc1OC [Cpd 85]
S: COc1ccc([C@@H](CCNS(=O)(=O)Cc2ccccc2)N2C(=O)c3cccc(N4CCN([C@H](C)c5ccccc5)CC4)c3C2=O)cc1OC [Cpd 222]
Q. Provide the items ranked by increasing pIC50. Sort the labels as requested; that list is your answer.
A. R, Q, S, P
(R: 5.66, Q: 6.47, S: 7.60, P: 7.89)

Hey, just so you know, these numbers are from patent US8193191B2.
